System: UACC-62 melanoma
Test: NCI tumour cell line growth inhibition, 48 h
TGI values by entry
Test Readout: TGI

- Molecule: "CCC(C(=O)c1ccc(OC)c(OC)c1)N(C(=O)C(F)(F)F)C(C)c1ccccc1 (stereo not given)"
  Test Result: "> 100 µM"
- Molecule: "Cc1ccc(NC(=O)c2cccc(N(C)C)c2)cc1NC(=O)c1ccc(O)cc1"
  Test Result: "99.4 µM"
- Molecule: "CCCn1cnc2c(SCc3ccccc3Cl)nc(N)nc21"
  Test Result: "22.7 µM"
- Molecule: "Nc1ccc(S(=O)(=O)Nc2nc3ccccc3nc2N2CCCCC2)cc1"
  Test Result: "> 100 µM"
- Molecule: "O=c1c2ccccc2nc(Nc2cccc(Cl)c2)n1/N=C/C=C/c1ccccc1"
  Test Result: "> 100 µM"

###

Test system: MDA-N
Test: NCI tumour cell line growth inhibition, 48 h
Recorded measurements of TGI, one per entry
Test Readout: TGI (µM)

- Compound: "Brc1ccc2c(-c3csc(-c4c[nH]c5cc(Br)ccc45)n3)c[nH]c2c1"
  Study System: "MDA-N"
  Qualifier: "="
  Test Result: 13.4
- Compound: "CN1C(=O)C2(Cc3cn(C45CC67SSC(CO)(C(=O)N6C4Nc4ccccc45)N(C)C7=O)c4ccccc34)SSC1(CO)C(=O)N2C (stereo not given)"
  Study System: "MDA-N"
  Qualifier: "="
  Test Result: 0.0661
- Compound: "CC(=O)OCCN1c2ccccc2Sc2cnccc21"
  Study System: "MDA-N"
  Qualifier: ">"
  Test Result: 10
- Compound: "COc1ccc(NC2=CC(=O)C(=O)c3ccccc32)nn1"
  Study System: "MDA-N"
  Qualifier: "="
  Test Result: 1.16
- Compound: "O=C(N/N=C/c1ccco1)c1cc(I)cc(I)c1O"
  Study System: "MDA-N"
  Qualifier: ">"
  Test Result: 50
- Compound: "O=c1oc2cc(O)ccc2c(O)c1C(c1ccc(C(c2c(O)c3ccc(O)cc3oc2=O)c2c(O)c3ccc(O)cc3oc2=O)cc1)c1c(O)c2ccc(O)cc2oc1=O"
  Study System: "MDA-N"
  Qualifier: ">"
  Test Result: 100
- Compound: "Cc1cc2[nH]c3c(C#N)c4c(c(=O)n3c2cc1C)CCCC4"
  Study System: "MDA-N"
  Qualifier: ">"
  Test Result: 100
- Compound: "NC(=O)C(=CNC(=S)c1ccncc1)C(N)=O"
  Study System: "MDA-N"
  Qualifier: ">"
  Test Result: 100
- Compound: "COc1ccc(-c2cc(=O)c3ccc(O)cc3o2)cc1OC"
  Study System: "MDA-N"
  Qualifier: ">"
  Test Result: 100
- Compound: "CC(C)(C)c1cc(/C=C(\\C#N)C(=O)NCCO)cc(C(C)(C)C)c1O"
  Study System: "MDA-N"
  Qualifier: "="
  Test Result: 48.7

###

System: UACC-62 melanoma
Test: NCI tumour cell line growth inhibition, 48 h

- Compound: "c1ccc2c3c(c(N4CCOCC4)nc2c1)CCCC3"
  Value Units: "µM"
  Qualifier: ">"
  TGI: 100
- Compound: "CC[C@]1(O)C[C@@H]2CN(CCc3c([nH]c4ccccc34)[C@@](C(=O)OC)(c3cc4c(cc3OC)N(C)[C@H]3[C@@](O)(C(=O)OC)[C@H](OC(C)=O)[C@]5(CC)C=CCN6CC[C@]43[C@@H]65)C2)C1"
  Value Units: "µM"
  Qualifier: "="
  TGI: 17.4
- Compound: "Nc1cc(N)c2nc(-c3ccccc3)c(Nc3ccc(Cl)c(Cl)c3)nc2c1"
  Value Units: "µM"
  Qualifier: "="
  TGI: 29.9
- Compound: "C/C(CC(=O)Nc1cc(Cl)c(Cl)cc1Cl)=N\\NC(N)=O"
  Value Units: "µM"
  Qualifier: ">"
  TGI: 100
- Compound: "CC1(CNCc2ccccc2)CC(CCc2ccccc2)N(C(=O)c2ccc([N+](=O)[O-])cc2)C1Cc1ccc(O)cc1 (centres undefined)"
  Value Units: "µM"
  Qualifier: "="
  TGI: 28.9
- Compound: "CCN(CC)c1ccc(/C=C/c2ccc3cc(C)ccc3[n+]2CC)cc1"
  Value Units: "µM"
  Qualifier: "="
  TGI: 1.37
- Compound: "COCC1OC(N2C(=O)NC(=O)[C@@H]3C=C4CCCCC4=C[C@@H]32)C(OC)C1OC (some centres undefined)"
  Value Units: "µM"
  Qualifier: ">"
  TGI: 100
- Compound: "O=C1O[C@@H](c2ccc3c(c2)OCO3)C2C(=O)O[C@@H](c3ccc4c(c3)OCO4)C12 (some centres undefined)"
  Value Units: "µM"
  Qualifier: ">"
  TGI: 100
- Compound: "CC1(C)OCC2OC3([C@H]4OC(C)(C)O[C@@H]4CO)OC(C)(C)OC3C2O1 (some centres undefined)"
  Value Units: "µM"
  Qualifier: ">"
  TGI: 100

###

System: NCI-H23 lung
Test: NCI tumour cell line growth inhibition, 48 h; in the data active = GI50 below about 0.43 µM; inactive = the rest
Classes used: active, inactive

- Input Smiles: "OCc1c[nH]c2ccccc12"
  Class Assignment: "inactive"
- Input Smiles: "[Cl-].[Dy+3].[O-]/N=C(\\c1ccccc1)c1ccccn1.[O-]/N=C(\\c1ccccc1)c1ccccn1.[O-]/N=C(\\c1ccccc1)c1ccccn1"
  Class Assignment: "inactive"
- Input Smiles: "CC[CH2][Sn]([CH2]CC)([O]C(=O)c1cccnc1SC)[O][Sn]([CH2]CC)([CH2]CC)[O]C(=O)c1cccnc1SC"
  Class Assignment: "active"

###

Catalogue of TGI readings, one per entry.
System: UACC-257 melanoma
Test: NCI tumour cell line growth inhibition, 48 h

- Compound: "N#CSc1c[nH]c2cccc(/C=C/C(=O)/C=C(/C=C/c3cccc4[nH]cc(SC#N)c34)OB(F)F)c12"
  TGI: "10.9 µM"
- Compound: "COc1ccc(-c2cc(=O)c3c(OC)c(OC)c(OC)cc3o2)cc1"
  TGI: "> 100 µM"
- Compound: "Cc1cc2ncc3c(=O)n(NS(=O)(=O)c4ccc(N)cc4)ccc3n2n1"
  TGI: "> 100 µM"
- Compound: "COc1ccc(/C=C/CN(C)CCc2ccccc2)cc1OC"
  TGI: "> 100 µM"
- Compound: "OCC(O)CC[CH2][Sn]([Br])([c]1ccccc1)[c]1ccccc1 (stereo not drawn)"
  TGI: "> 100 µM"
- Compound: "CC1(C)CNC(=O)C2(C=NC(C)(C)CNC(=O)C3(C=N1)CCCO3)CCCO2 (stereo not drawn)"
  TGI: "> 10 µM"
- Compound: "N#Cc1c(-c2ccc(F)cc2)nc(N/N=C/c2c[nH]c3ccccc23)nc1N1CCOCC1"
  TGI: "4.87 µM"
- Compound: "O=c1/c(=C/c2ccco2)sc2nc3ccccc3n12"
  TGI: "> 100 µM"
- Compound: "CC(=O)CNC(=O)OC(C)(C)C"
  TGI: "> 100 µM"
- Compound: "COC(=O)/C=C/c1cc(OC)c(OC)c(OC)c1"
  TGI: "> 100 µM"
- Compound: "CC(=O)OCC(OC(C)=O)C1C[C@H]2O[C@@H]3[C@H](C[C@H]2O1)O[C@@]1(C[C@@H]3C)C[C@H](C)[C@@H]2O[C@]3(C[C@@H]2O1)C[C@H]1O[C@H]2[C@H](C)[C@H]4OC(=O)CC5CC[C@H]6OC7[C@H]8O[C@]9(CC[C@H]%10CC(O)(CO)[C@H](CC[C@H]%11C[C@@H](C)C(O)(CO)C(C[C@@H]4O[C@H]2C[C@H]1O3)O%11)O%10)CC8O[C@@H]7[C@@H](O9)[C@H]6O5 (stereo partly drawn)"
  TGI: "> 1 µM"
- Compound: "Clc1ccc(OCc2nnc(CCCCCCCCc3nnc(COc4ccc(Cl)cc4)n3Nc3ccccc3)n2Nc2ccccc2)cc1"
  TGI: "> 100 µM"
- Compound: "Brc1ccc2c(-c3csc(-c4c[nH]c5cc(Br)ccc45)n3)c[nH]c2c1"
  TGI: "> 100 µM"
- Compound: "CC(C)c1nc(CN(C)C(=O)N[C@H](C(=O)N[C@@H](Cc2ccccc2)C[C@H](O)[C@H](Cc2ccccc2)NC(=O)OCc2cncs2)C(C)C)cs1"
  TGI: "38 µM"
- Compound: "NC(=O)C(=O)N/N=C(\\CC1(O)C(=O)Nc2ccccc21)c1ccc2ccccc2c1 (stereo not drawn)"
  TGI: "> 100 µM"
- Compound: "CC1CC(=O)Nc2nc3ccccc3n21 (stereo not drawn)"
  TGI: "> 100 µM"
- Compound: "O=c1c2cc([N+](=O)[O-])ccc2sc2ccsc12"
  TGI: "> 100 µM"
- Compound: "C=CCCCCCCCCC(=O)[O][Sn]([CH2]CCC)([CH2]CCC)[CH2]CCC"
  TGI: "0.291 µM"
- Compound: "FC(F)(F)c1cccc(Nc2nccc(-c3cnn4nc(-c5ccccc5)ccc34)n2)c1"
  TGI: "> 25 µM"
- Compound: "NC(=O)c1ccc(I)c(N)c1"
  TGI: "> 100 µM"
- Compound: "O=c1oc2cc(O)ccc2c(O)c1C(c1ccc(C(c2c(O)c3ccc(O)cc3oc2=O)c2c(O)c3ccc(O)cc3oc2=O)cc1)c1c(O)c2ccc(O)cc2oc1=O"
  TGI: "> 100 µM"
- Compound: "Nc1ccc(S(=O)(=O)Nc2nc3ccccc3nc2N2CCCCC2)cc1"
  TGI: "> 100 µM"
- Compound: "COc1cc(/C=C\\C(=O)O)ccc1OCc1ccccc1"
  TGI: "> 100 µM"
- Compound: "COC1(OC)CCCCC2c3cccc(OC(C)=O)c3C21OC(C)=O (stereo not drawn)"
  TGI: "> 100 µM"
- Compound: "C=C1C(=O)O[C@@]23C1CC[C@@H](C)C2CC[C@@]1(C)OC31 (stereo partly drawn)"
  TGI: "24.4 µM"
- Compound: "COc1ccc2c(c1)CN1C(=N2)CSC1c1ccccc1Cl (stereo not drawn)"
  TGI: "28.8 µM"
- Compound: "CN1C(=O)C2(Cc3cn(C45CC67SSC(CO)(C(=O)N6C4Nc4ccccc45)N(C)C7=O)c4ccccc34)SSC1(CO)C(=O)N2C (stereo not drawn)"
  TGI: "1.13 µM"
- Compound: "O=C(/N=N/C(=O)OCc1ccccc1)OCc1ccccc1"
  TGI: "> 100 µM"
- Compound: "CC(=S)N=Cc1c(O)cc(C)oc1=O"
  TGI: "> 100 µM"
- Compound: "CC[C@@H]1CN(C)[C@H]2Cc3c([nH]c4ccccc34)C(=O)C[C@H]1C2C(=O)OC (stereo partly drawn)"
  TGI: "> 100 µM"
- Compound: "Cc1ccc(NC(=O)c2cccc(N(C)C)c2)cc1NC(=O)c1ccc(O)cc1"
  TGI: "> 100 µM"
- Compound: "COc1cc([N+](=O)[O-])cc2c3c(n(C)c12)[C@@]1(C)CCC2c4ccc(OCc5ccccc5)cc4CCC2C1C3 (stereo partly drawn)"
  TGI: "> 100 µM"
- Compound: "O=C(O)C(CS)N=c1c2ccccc2n(O)c2ccccc12 (stereo not drawn)"
  TGI: "> 100 µM"
